B1: PAIP1 peptide 126-141 (Polyadenylate-binding protein-interacting protein 1), 16-mer library wild type / PABPC1 PABC (PABPC1 PABC domain, residues 544-623) (parent)
chain 1: SKLSVNAPEFYPSGYS
chain 2: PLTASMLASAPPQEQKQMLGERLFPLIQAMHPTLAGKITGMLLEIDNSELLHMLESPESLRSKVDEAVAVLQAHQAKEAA

# Variants of: B1
# measurementDescription: proteomic peptide phage display deep mutational scan (ProP-PD DMS): M13 P8 16-mer library selected against immobilised GST-tagged bait for four days (rounds), NGS of the eluted pools per day and pseudo-replica
# runConditions: with PABPC1 PABC (PABPC1 PABC domain, residues 544-623); bait immobilised on MaxiSorp plates (10 µg), library pre-cleared on GST, 2 h binding at 4 °C, five washes; one round per day, days 1-4; value from days 2 and 3; keep out of graded; scale: average fractional NGS count over selection days 2 and 3
valueType: screen value
Output: the number by itself.

[[record]]
mutationname = "chain 1 V5M"
numericvalue = 0.000169

[[record]]
mutationname = "chain 1 S13Y"
numericvalue = 0.00035

[[record]]
mutationname = "chain 1 E9R"
numericvalue = "4.17e-05"

[[record]]
mutationname = "chain 1 P12R"
numericvalue = "4.76e-05"

[[record]]
mutationname = "chain 1 F10W"
numericvalue = 0.0171

[[record]]
mutationname = "chain 1 Y11L"
numericvalue = 0.00117

[[record]]
mutationname = "chain 1 P8Q"
numericvalue = 0.000383

[[record]]
mutationname = "chain 1 A7M"
numericvalue = 0.000228


Attention now shifts to the item below.
screen value for chain 1 N6H ?
0.000862
